- Tested Target: recombinant his-tagged homotrimeric SARS-CoV-2 spike protein (SARS-CoV-2, UniProt P0DTC2 16-1211)
- Assay Protocol: flow cytometry, blocking of binding to hACE-2 cells
Listed binders paired with reported percent blocking
Experimental Readout: percent blocking (%)

| Binder | Experimental Readout | Endpoint Value |
| --- | --- | --- |
| 1035740 (antibody, V domains shown) VH: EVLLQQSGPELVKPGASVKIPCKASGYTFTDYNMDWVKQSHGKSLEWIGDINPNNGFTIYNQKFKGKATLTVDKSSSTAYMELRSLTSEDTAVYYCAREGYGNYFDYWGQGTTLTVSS VL: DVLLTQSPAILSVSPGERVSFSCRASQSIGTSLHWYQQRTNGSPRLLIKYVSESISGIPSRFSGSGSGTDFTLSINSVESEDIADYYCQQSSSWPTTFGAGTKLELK | percent blocking | 96.5 |
| 1035752 (antibody, V domains shown) VH: QVQLQQPGAELVRPGASVKMSCKASGYTFTSHSIHWVKQTPGQGLEWIGAVYPGNGDTSYYQKFKGKATLTADKSSSTAYMHLSSLTSEDSAVYYCARDGYSDYYAMDCWGQGTSVTVSS VL: DIVMTQSQKFMSTSVGDRVSVTCKASQNVGTNVAWYQQKPGQSPKALIYSASYRYSGVPDRFTGSGSGTDFTLTINNVQSEDLAEYFCQQYNRYPWTFGGGTKLEIK | percent blocking | 91.8 |
| 1035224 (antibody, V domains shown) VH: EVQLQQSGAEFVRPGALVKLSCKASGFNIKDDYMHWVKQRPEQGLEWIGWIDPENGNSIYDPKFQGKASITADTSSNTAYLQLSSLTSEDTAVYYCARGEYFGSGSFAYWGQGTLVTVSA VL: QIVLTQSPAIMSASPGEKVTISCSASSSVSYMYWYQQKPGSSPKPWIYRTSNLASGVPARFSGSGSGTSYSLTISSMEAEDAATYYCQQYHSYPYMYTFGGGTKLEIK | percent blocking | 96.6 |
